All values here come from patent US20250084155A1.

target: T1, HSP70 (human HSP70; the antigen of the binning, humanization and variant binding assays) (human, UniProt P0DMV8 1-641, limits assumed); test: BLI, antibody on sensor
T1 construct: also called hu HSP70
T1 sequence (P0DMV8 whole entry, change not shown): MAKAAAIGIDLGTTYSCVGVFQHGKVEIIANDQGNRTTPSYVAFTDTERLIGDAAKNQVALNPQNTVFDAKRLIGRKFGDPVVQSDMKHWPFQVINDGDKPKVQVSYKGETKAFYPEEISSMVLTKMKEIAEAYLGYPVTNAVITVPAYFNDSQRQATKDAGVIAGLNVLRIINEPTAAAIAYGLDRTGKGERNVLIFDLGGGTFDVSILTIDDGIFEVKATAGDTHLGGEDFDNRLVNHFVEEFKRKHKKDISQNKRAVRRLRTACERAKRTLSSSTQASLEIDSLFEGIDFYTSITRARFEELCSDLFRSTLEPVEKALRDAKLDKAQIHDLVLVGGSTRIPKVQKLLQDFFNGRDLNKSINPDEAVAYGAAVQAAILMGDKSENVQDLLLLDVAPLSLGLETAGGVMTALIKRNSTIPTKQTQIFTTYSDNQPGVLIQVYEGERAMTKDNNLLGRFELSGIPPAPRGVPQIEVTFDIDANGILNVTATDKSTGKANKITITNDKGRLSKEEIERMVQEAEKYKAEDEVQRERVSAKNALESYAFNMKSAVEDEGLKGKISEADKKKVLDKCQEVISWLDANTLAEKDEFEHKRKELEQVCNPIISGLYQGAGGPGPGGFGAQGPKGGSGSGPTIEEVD
Provide the reported koff of each item.
Express the result in s⁻¹ but write the number alone.

The binder identified as chimeric 77A with a human IgG2 Fc domain (antibody, V domains shown, also called Chimera IgG2; IgG2 Chimera) VH: QIQLVQSGPELKKPGETVKISCKASGYTFTNYGMNWVKQAPGKGLKWMGWINTYTGEPTYADDFKGRFAFSLETSATTAYLQINNLKNEDTATYFCARYDHAMDYWGQGTSVTVSS VL: DIVMSQSPSSLAVSAGEKVTMSCKSSQSLLNSGTRKNYLAWYQQKPGQSPKLLIYWTSTRESGVPDRFTGSGSGTDFTLTINSVQAEDLAVYYCKQSYTLYTFGGGTKLEIK registered its koff at 0.000112

The binder identified as h77A-1 (antibody, V domains shown, also called hVH-1 + hVL-1) VH: QIQLVQSGAEVKKPGASVKVSCKASGYTFTNYGMNWVRQAPGQGLEWMGWINTYTGEPTYADDFKGRFTFTTDTSTSTAYMELRSLRSDDTAVYFCARYDHAMDYWGQGTLVTVSS VL: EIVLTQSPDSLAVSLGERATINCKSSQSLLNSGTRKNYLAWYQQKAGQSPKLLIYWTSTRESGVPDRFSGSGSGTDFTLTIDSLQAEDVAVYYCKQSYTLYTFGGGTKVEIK registered its koff at 0.000173

The binder identified as chimeric 77A with a human IgG4 Fc domain (antibody, V domains shown, also called Chimera IgG4; IgG4 Chimera) VH: QIQLVQSGPELKKPGETVKISCKASGYTFTNYGMNWVKQAPGKGLKWMGWINTYTGEPTYADDFKGRFAFSLETSATTAYLQINNLKNEDTATYFCARYDHAMDYWGQGTSVTVSS VL: DIVMSQSPSSLAVSAGEKVTMSCKSSQSLLNSGTRKNYLAWYQQKPGQSPKLLIYWTSTRESGVPDRFTGSGSGTDFTLTINSVQAEDLAVYYCKQSYTLYTFGGGTKLEIK registered its koff at 0.000129

The binder identified as h77A-21 (antibody, V domains shown) VH: QIQLVQSGPEVKKPGESVKVSCKASGYTFTNYGMNWVRQAPGKGLEWMGWINTYTGEPTYADDFKGRVTITRDTSASTAYMELSSLRSEDTAVYFCARYDHAMDYWGQGTSVTVSS VL: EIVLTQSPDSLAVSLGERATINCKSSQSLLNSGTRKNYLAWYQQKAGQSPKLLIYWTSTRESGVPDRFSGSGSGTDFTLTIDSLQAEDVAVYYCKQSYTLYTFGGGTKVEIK registered its koff at 0.000545

The binder identified as h77A-4 (antibody, V domains shown) VH: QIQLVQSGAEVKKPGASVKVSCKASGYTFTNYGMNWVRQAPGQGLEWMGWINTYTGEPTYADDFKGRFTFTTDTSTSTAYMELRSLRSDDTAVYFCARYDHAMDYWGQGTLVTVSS VL: DIQMTQSPSSLSASVGDRVTITCKSSQSLLNSGTRKNYLAWYQQKPGKVPKLLIYWTSTRESGVPSRFSGSGSGTDFTLTISSLQPEDVATYYCKQSYTLYTFGGGTKLEIK registered its koff at 0.000287
